test description: Solubility in 0.1 mol/L HCl solution (HPLC)
Assay type: physicochemical
measurement parameters: simulated gastric fluid, thermodynamic from solid, 37° C., shaking for an hour
Procedure: The excess amount of the crystal obtained in Example 6 was added into 0.1 mol/L HCl solution in a test tube, and was dissolved at 37° C. with shaking for an hour. The concentration of the filtrate was measured to determine the solubility by using high performance liquid chromatography (HPLC). The solubility of the crystal obtained in Example 6 was 2 mg/mL.
assay endpoint: solubility at 1 h (µg/mL)
Respond with the bare value in µg/mL.

Measured solubility at 1 h of `CN(C)C(=O)/C=C/CNCCOc1ccc(/C(=C(/CC(F)(F)F)c2ccccc2)c2ccc3[nH]nc(F)c3c2)cn1.O=S(=O)(O)c1ccccc1` : 2000

Data credit: patent US10640483B2
